pIC50: −log10 of the molar value.
Study the reported pIC50 values for PIK3CD (Human) given below; they originate from different publications.
Property Name: pIC50

• Cc1cccc2cc(Cn3nc(-c4ccc(O)cc4)c4c(N)ncnc43)n(-c3ccccc3F)c(=O)c12 = > 5.00
• CC(C)Nc1cccc2cc([C@H](C)NC(=O)c3c(N)nn4cccnc34)n(-c3ccccc3)c(=O)c12 = < 5.00
• CC(=O)Nc1ncc(-c2cccc(NS(C)(=O)=O)c2)nc1C(=O)N[C@@H](C)c1cc2cccc(Cl)c2c(=O)n1C = < 5.00
• N#Cc1cc2cnc(Nc3ccc4c(c3)C(=O)NCC4)nc2n(C2CCCC2)c1=O = 6.79
• Cc1cccc2cc(Cn3nc(C#C[C@@H](C)O)c4c(N)ncnc43)n(C3CC3)c(=O)c12 = > 7.00
